# maps each entry to its pre-emergence activity against ECHCG
# Tested on: ECHCG
# Test Protocol: C. Herbicidal pre-emergence action, weed and crop plants (Tables C)
# Assay type: in vivo, Echinochloa crus-galli
# Test Parameters: application rate 320 g/ha; Table C6a
# output: bare number, implied unit %

Molecule: CNC(=O)n1cc(C(=O)N2CCCC2Cc2ccccc2F)c(COC)n1 (racemic)
Result: 100

Incoming: Could you share which pre-emergence activity against ECHCG value was measured for COCc1nn(C)cc1C(=O)N1CCCC1Cc1cc(F)ccc1F (racemic) ?
Outgoing: 90

Incoming: Name the reported pre-emergence activity against ECHCG value associated with the molecule COCc1nn2c(c1C(=O)N1CCCC1Cc1ccccc1F)CCC2 (racemic)
Outgoing: 90

Incoming: Data request, read-out pre-emergence activity against ECHCG, for Cn1cc(C(=O)N2CCCC2Cc2ccccc2F)c(COCC(F)F)n1 (racemic)
Outgoing: 90

Incoming: Please give the measured pre-emergence activity against ECHCG for this molecule: C=C(c1ccccc1F)C1CCCN1C(=O)c1cn(C)nc1COC (racemic)
Outgoing: 90

Incoming: Can you look up the measured pre-emergence activity against ECHCG of COCc1nn(C(=O)OC(C)(C)C)cc1C(=O)N1CCCC1Cc1ccccc1F (racemic) for me?
Outgoing: 90

Incoming: For the molecule shown here, Cn1cc(C(=O)N2CCCC2Cc2ccc(F)cc2F)c(COc2ccccc2)n1 (racemic) , give the reported pre-emergence activity against ECHCG.
Outgoing: 90

Incoming: GET /values?readout=pre-emergence activity against ECHCG&item= COCc1c(C(=O)N2CCCC2Cc2ccccc2F)cnn1C (single isomer, unassigned)
Outgoing: 80

----------
# Test system: STEME
# Test Protocol: A. Herbicidal pre-emergence action on harmful plants (Tables A)
# Assay type: in vivo, Stellaria media
# Test Parameters: application rate 1280 g/ha; visual grading after ca. 3 weeks vs untreated controls; 100% = plants have died off, 0% = as control plants
Measurement Type: pre-emergence activity against STEME (%)
Please give a number only; it is taken to be in %.

These solved cases illustrate the format of a correct answer.
Compound: COCc1nn(C)cc1C(=O)N1CCCC1Cc1ccccc1C (single isomer, unassigned) [Example I-084]
pre-emergence activity against STEME (%): 90
--
Compound: Cn1cc(C(=O)N2CCC2Cc2ccccc2F)c(COCC(F)F)n1 (racemic)
pre-emergence activity against STEME (%): 90
--
Compound: COCc1nn(C)cc1C(=O)N1CCCC1C(O)c1ccccc1F (single isomer, unassigned) [Example I-053]
pre-emergence activity against STEME (%): 90
--
Compound: COCc1c(C(=O)N2CCCC2Cc2c(F)cccc2Cl)cnn1C (single isomer, unassigned) [Example I-190]
pre-emergence activity against STEME (%): 90
--
Compound: COCc1nn(C)cc1C(=O)N1CCCC1Cc1c(F)cccc1F (single isomer, unassigned) [Example I-082]
pre-emergence activity against STEME (%): 90
--
Compound: COCc1nn(C)cc1C(=O)N1CCCC1Cc1ccccc1F (single isomer, unassigned) [Example I-003]
pre-emergence activity against STEME (%): 90

Incoming: Given the entry COCc1nn(C)c(Cl)c1C(=O)N1CCCC1Cc1ccccc1F (single isomer, unassigned) , report its measured pre-emergence activity against STEME.
Outgoing: 90

----------
# Tested on: ZEAMX
# Test Protocol: D. Pre-emergence effects on crop plants (Tables D)
# Format: in vivo, Zea mays
# Test Parameters: crop plant; application rate 80 g/ha; Table D1b
Measurement Type: pre-emergence activity against ZEAMX (%)
Give the number; % is assumed, so skip it.

The following compounds have reported results that may help.
Compound: Cn1cc(C(=O)N2CCCC2Cc2ccc(F)cc2F)c(COc2ccccc2)n1 (racemic)
pre-emergence activity against ZEAMX (%): 10

Compound: Cn1cc(C(=O)N2CCCC2Cc2ccccc2F)c(COc2ccccc2)n1 (racemic)
pre-emergence activity against ZEAMX (%): 0

Compound: Cn1cc(C(=O)N2CCCC2Cc2ccccc2F)c(COCC(F)F)n1 (racemic)
pre-emergence activity against ZEAMX (%): 0

Compound: COCc1nn(C(=O)OC(C)(C)C)cc1C(=O)N1CCCC1Cc1ccccc1F (racemic)
pre-emergence activity against ZEAMX (%): 20

Compound: COCc1c(C(=O)N2CCCC2(C)Cc2ccccc2F)cnn1C (single isomer, unassigned)
pre-emergence activity against ZEAMX (%): 0

Compound: COCc1nn2c(c1C(=O)N1CCCC1Cc1ccccc1F)CCC2 (racemic)
pre-emergence activity against ZEAMX (%): 0

Compound: C=C(c1ccccc1F)C1CCCN1C(=O)c1cn(C)nc1COC (racemic)
pre-emergence activity against ZEAMX (%): 0

Incoming: Quick check: pre-emergence activity against ZEAMX of Cn1cc(C(=O)N2CCCC2Cc2ccccc2F)c(COCC2COC2)n1 (racemic) ?
Outgoing: 0

----------
# post-emergence activity against ZEAMX in % listing for each entry below
# Test system: ZEAMX
# Test Protocol: F. Post-emergence effects on crop plants (Tables F)
# Type: in vivo, Zea mays
# Test Parameters: application rate 320 g/ha, crop plant
Value expressed in %; do not type the unit.

Incoming: Find the recorded post-emergence activity against ZEAMX in % belonging to C=C(c1ccccc1F)C1CCCN1C(=O)c1cn(C)nc1COC (racemic) and report it.
Outgoing: 20

----------
# System: VERPE
# Test Protocol: C. Herbicidal pre-emergence action, weed and crop plants (Tables C)
# Type: in vivo, Veronica persica
# Test Parameters: application rate 320 g/ha; Table C11
Measurement Type: pre-emergence activity against VERPE (%)
Hi! Could you send only the number? It should be in %, unit omitted.

Consider the reported pre-emergence activity against VERPE for these molecules:
Molecule: COCc1c(C(=O)N2CCCC2Cc2ccccc2F)cnn1C (single isomer, unassigned) [Example I-157]
Target Desc: VERPE
Measurement Type: pre-emergence activity against VERPE
Measure Unit: %
Result: 80
//
Molecule: COCc1nn(C)cc1C(=O)N1CCCC1C(O)c1ccccc1F (single isomer, unassigned) [Example I-053]
Target Desc: VERPE
Measurement Type: pre-emergence activity against VERPE
Measure Unit: %
Result: 80

Incoming: Query (molecule): COCc1nn(C)cc1C(=O)N1CCCC1Cc1ccccc1F (single isomer, unassigned) [Example I-003] ; field requested: pre-emergence activity against VERPE
Outgoing: 80

Incoming: Find the recorded pre-emergence activity against VERPE belonging to COCc1c(C(=O)N2CCCC2Cc2ccccc2Cl)cnn1C (racemic) [Example I-170] and report it.
Outgoing: 80

----------
# Test system: ALOMY
# Test Protocol: B. Herbicidal post-emergence action on harmful plants (Tables B)
# Assay type: in vivo, Alopecurus myosuroides
# Test Parameters: application rate 1280 g/ha; Table B9a
The following compounds are shown together with reported post-emergence activity against ALOMY values.
Your answer should be a plain number; it is taken to be in %.

Here are 4 compounds together with their reported answers.
Compound: Cn1cc(C(=O)N2CCCC2Cc2ccccc2F)c(COc2ccccc2)n1 (racemic) [Example I-006]
Measurement Type: post-emergence activity against ALOMY
Result: 90

Compound: COCc1nn(C)cc1C(=O)N1CCCC1Cc1ccccc1F (single isomer, unassigned) [Example I-003]
Measurement Type: post-emergence activity against ALOMY
Result: 100

Compound: Cn1cc(C(=O)N2CCCC2Cc2cc(F)ccc2F)c(COc2ccccc2)n1 (racemic) [Example I-010]
Measurement Type: post-emergence activity against ALOMY
Result: 90

Compound: COCc1c(C(=O)N2CCCC2Cc2ccccc2Cl)cnn1C (racemic) [Example I-170]
Measurement Type: post-emergence activity against ALOMY
Result: 90

Incoming: Fill in: post-emergence activity against ALOMY of Cn1cc(C(=O)N2CCCC2Cc2ccc(F)cc2F)c(COc2ccccc2)n1 (racemic) [Example I-008] is ___
Outgoing: 90

----------
# Tested on: POAAN
# Test Protocol: A. Herbicidal pre-emergence action on harmful plants (Tables A)
# Assay type: in vivo, Poa annua
# Test Parameters: application rate 320 g/ha; Table A7b
Measurement Type: pre-emergence activity against POAAN (%)
Give the value in % but do not write % after it.

Answered examples (3):
Compound: COCc1nn(C)cc1C(=O)N1CCCC1C(O)c1ccccc1F (single isomer, unassigned) [Example I-053]
pre-emergence activity against POAAN [%]: 90
//
Compound: COCc1c(C(=O)N2CCCC2Cc2ccc(Cl)cc2Cl)cnn1C (racemic) [Example I-166]
pre-emergence activity against POAAN [%]: 90
//
Compound: Cn1cc(C(=O)N2CCCC2Cc2ccccc2F)c(COCC(F)F)n1 (racemic) [Example I-044]
pre-emergence activity against POAAN [%]: 100

Incoming: Sample COCc1nn(C)cc1C(=O)N1CCCC1Cc1ccccc1F (racemic) [Example I-002] — what was its pre-emergence activity against POAAN?
Outgoing: 100

Incoming: Would you mind telling me what pre-emergence activity against POAAN value was observed for COCc1nn(C)cc1C(=O)N1CCCC1Cc1cc(F)ccc1F (single isomer, unassigned) [Example I-071] ?
Outgoing: 100

Incoming: So what's the measured pre-emergence activity against POAAN for this one? COCc1nn(C(=O)NC2CC2)cc1C(=O)N1CCCC1Cc1ccccc1F (racemic) [Example I-036]
Outgoing: 90

Incoming: Query: pre-emergence activity against POAAN; subject: Cn1cc(C(=O)N2CCCC2Cc2ccccc2F)c(COc2ccccc2)n1 (racemic) [Example I-006]
Outgoing: 100

Incoming: Recorded pre-emergence activity against POAAN of Cn1cc(C(=O)N2CCC2Cc2ccccc2F)c(COCC(F)F)n1 (racemic) [Example I-108] , please.
Outgoing: 100
